# Test system: MDA-MB-453
# procedure-details: normalised viability (% of control), CellTiter-Blue; higher = more viable cells (about 100 = DMSO control)
# measurement-conditions: incubation time: 72 h
observable: normalised viability (%)
Field format: number, assumed %, no unit text.

See these solved cases before continuing.
> print(dat)
                                   compound  numeric.readout
1  COC1=CC(c2cc3ccccc3[nH]2)=N/C1=C\c1[nH]c(C)cc1C [Obatoclax] (10000 nM)             18.6
2  CCS(=O)(=O)c1cccc(-c2cc(C(=O)NC3CCN(C)CC3)c(C)c3[nH]c4ncc(C)cc4c23)c1 [TAK-901] (1000 nM)             40.2
3  O=C(c1ccc(OCCN2CCCCC2)cc1)c1c(-c2ccc(O)cc2)sc2cc(O)ccc12 [Raloxifene] (10000 nM)             45.7

Data request, read-out normalised viability, for COc1c(C)cnc(Cn2cnc3c(Cl)nc(N)nc32)c1C [BIIB021] (10000 nM)
4.83

Data request, read-out normalised viability, for O=P(O)(NCCCl)NCCCl [Ifosfamide mustard] (10000 nM)
99.8

Data request, read-out normalised viability, for CCOc1cc2ncc(C#N)c(Nc3ccc(OCc4ccccn4)c(Cl)c3)c2cc1NC(=O)/C=C/CN(C)C [Neratinib] (1000 nM)
75.8

----------
# Tested on: MDA-MB-453
# procedure-details: normalised response (% of control), CellTiter-Glo; higher = more viable cells (100 = DMSO, 0 = benzethonium chloride kill control)
# measurement-conditions: incubation time: 72 h
observable: normalised response (%)
Field format: number, assumed %, no unit text.

> print(dat)
                                   compound           observable  unit.symbol  numeric.readout
1  Cc1cc(C(C)Nc2ccccc2)c2nc(N3CCOCC3)cc(=O)n2c1 (stereo unspecified) [TGX-221] (10000 nM)  normalised response            %             76.1
2  C#Cc1cccc(Nc2ncnc3cc(OC)c(OCCCCCCC(=O)NO)cc23)c1 [CUDC-101] (10000 nM)  normalised response            %             4.64
3  CC(C)(C)c1cc(NC(=O)Nc2ccc(-c3cn4c(n3)sc3cc(OCCN5CCOCC5)ccc34)cc2)no1 [Quizartinib] (1000 nM)  normalised response            %               97
4  CN1CCN(c2ccc3nc(-c4c(N)c5c(F)cccc5[nH]c4=O)[nH]c3c2)CC1 [Dovitinib] (10000 nM)  normalised response            %             96.4
5  COc1c(C)cnc(Cn2cnc3c(Cl)nc(N)nc32)c1C [BIIB021] (10000 nM)  normalised response            %             27.5

# evaluate next
Data request, read-out normalised response, for C[C@@H]1CCN(C(=O)CC#N)C[C@@H]1N(C)c1ncnc2[nH]ccc12 [Tofacitinib] (5000 nM)
105

----------
# System: CAL-148
# procedure-details: normalised viability (% of control), CellTiter-Blue; higher = more viable cells (about 100 = DMSO control)
# measurement-conditions: 10 nM; incubation time: 72 h
observable: normalised viability (%)
Field format: number, assumed %, no unit text.

> print(dat)
                                  compound  system.name  numeric.readout
1  O=P(O)(NCCCl)NCCCl [Ifosfamide mustard]      CAL-148              104

Data request, read-out normalised viability, for COC(=O)C[C@](O)(CCCC(C)(C)O)C(=O)O[C@@H]1C(OC)=C[C@]23CCCN2CCc2cc4c(cc2[C@H]13)OCO4 [Omacetaxine mepesuccinate]
67.6

Data request, read-out normalised viability, for C#Cc1cccc(Nc2ncnc3cc(OC)c(OCCCCCCC(=O)NO)cc23)c1
83.6

Data request, read-out normalised viability, for O=c1[nH]c(=O)n([C@H]2C[C@H](O)[C@@H](CO)O2)cc1F
99.8

----------
Listed next: entries and their corresponding normalised viability.
# System: CAL-148
# procedure-details: normalised viability (% of control), CellTiter-Blue; higher = more viable cells (100 = DMSO, 0 = benzethonium chloride kill control)
# measurement-conditions: incubation time: 72 h
Field format: number, assumed %, no unit text.

See these solved cases before continuing.
> print(dat)
                                   compound            observable  numeric.readout
1    CCCC(CCC)C(=O)O [Valproic acid] (1 nM)  normalised viability              103
2  CCOc1cc2ncc(C#N)c(Nc3ccc(OCc4ccccn4)c(Cl)c3)c2cc1NC(=O)/C=C/CN(C)C [Neratinib] (0.1 nM)  normalised viability             96.7
3  COc1ccc(C2=N[C@@H](c3ccc(Cl)cc3)[C@@H](c3ccc(Cl)cc3)N2C(=O)N2CCNC(=O)C2)c(OC(C)C)c1 [Nutlin-3] (1 nM)  normalised viability              104
4  COc1cc(Nc2ncc(F)c(Nc3ccc4c(n3)NC(=O)C(C)(C)O4)n2)cc(OC)c1OC [R406] (1 nM)  normalised viability              110
5  O=C(c1ccc(OCCN2CCCCC2)cc1)c1c(-c2ccc(O)cc2)sc2cc(O)ccc12 [Raloxifene] (1 nM)  normalised viability             98.2

Data request, read-out normalised viability, for O=c1[nH]c(=O)n([C@H]2C[C@H](O)[C@@H](CO)O2)cc1F [Floxuridine] (1 nM)
102

Data request, read-out normalised viability, for Cn1cnc2c(F)c(Nc3ccc(Br)cc3F)c(C(=O)NOCCO)cc21 [MEK-162] (0.1 nM)
111

Data request, read-out normalised viability, for O=P(O)(NCCCl)NCCCl [Ifosfamide mustard] (1 nM)
111

Data request, read-out normalised viability, for C[C@@]1(C(=O)Nc2ccc(F)nc2)CCCN1c1nc(Nc2cc(C3CC3)n[nH]2)c2cccn2n1 (1 nM)
97.1

Data request, read-out normalised viability, for COc1cccc2c1C(=O)c1c(O)c3c(c(O)c1C2=O)C[C@@](O)(C(C)=O)C[C@@H]3O[C@H]1C[C@H](N)[C@H](O)[C@H](C)O1 [Daunorubicin] (0.1 nM)
106

Data request, read-out normalised viability, for CC(C)C[C@H](NC(=O)[C@H](Cc1ccccc1)NC(=O)c1cnccn1)B(O)O [Bortezomib] (0.1 nM)
104

----------
# System: MDA-MB-436
# procedure-details: normalised response (% of control), CellTiter-Glo; higher = more viable cells (100 = DMSO, 0 = benzethonium chloride kill control)
# measurement-conditions: incubation time: 72 h
Listed next: entries and their corresponding normalised response.
Field format: number, assumed %, no unit text.

molecule	system-name	numeric-readout
CCS(=O)(=O)c1cccc(-c2cc(C(=O)NC3CCN(C)CC3)c(C)c3[nH]c4ncc(C)cc4c23)c1 [TAK-901] (1000 nM)	MDA-MB-436	57

Data request, read-out normalised response, for CC(C)C[C@H](NC(=O)[C@H](Cc1ccccc1)NC(=O)c1cnccn1)B(O)O [Bortezomib] (1000 nM)
1.47

Data request, read-out normalised response, for O=c1[nH]cc(F)c(=O)[nH]1 [Fluorouracil] (10000 nM)
75.8

Data request, read-out normalised response, for COc1cccc2c1C(=O)c1c(O)c3c(c(O)c1C2=O)C[C@@](O)(C(C)=O)C[C@@H]3O[C@H]1C[C@H](N)[C@H](O)[C@H](C)O1 [Daunorubicin] (1000 nM)
22.8

Data request, read-out normalised response, for C#Cc1cccc(Nc2ncnc3cc(OC)c(OCCCCCCC(=O)NO)cc23)c1 [CUDC-101] (10000 nM)
33.5

Data request, read-out normalised response, for Cc1cc(C(C)Nc2ccccc2)c2nc(N3CCOCC3)cc(=O)n2c1 (configuration not stated) [TGX-221] (10000 nM)
70.9

Data request, read-out normalised response, for CN(c1ccccc1CNc1nc(Nc2ccc3c(c2)CC(=O)N3)ncc1C(F)(F)F)S(C)(=O)=O (10000 nM)
18.9

----------
Listed next: entries and their corresponding drug sensitivity score.
# System: MDA-MB-468
# procedure-details: drug sensitivity score (DSS), CellTox Green (DSS (AUC-based score)); higher = stronger drug effect (viability inhibition or cytotoxicity); extreme values may be limits of the assay
# measurement-conditions: incubation time: 72 h

See these solved cases before continuing.
molecule	observable	result
CCCC(CCC)C(=O)O [Valproic acid]	drug sensitivity score	0
COc1ncc(-c2ccc3nccc(-c4ccnnc4)c3c2)cc1NS(=O)(=O)c1ccc(F)cc1F	drug sensitivity score	9.19

# evaluate next
Data request, read-out drug sensitivity score, for COc1ccc(C2=N[C@@H](c3ccc(Cl)cc3)[C@@H](c3ccc(Cl)cc3)N2C(=O)N2CCNC(=O)C2)c(OC(C)C)c1 [Nutlin-3]
0

Origin of measurements: the supplement of paper PMC4862054
